target system: tau (Homo sapiens)
method summary: MCE Phenols Library screening, tau biosensor cell seeding assay (AvZ)
Format: cell-based
protocol conditions: Z score, replicate 1
Parameter Z repl 1: see the listing below.
reported property: Z repl 1

>  <compound>
O=C(/C=C/c1ccc(O)c(O)c1)N[C@@H](Cc1ccc(O)c(O)c1)C(=O)O [Clovamide]

>  <measured number>
-0.17

$$$$
>  <compound>
C[C@@H]1O[C@@H](Oc2cc(O)c3c(=O)c(O[C@@H]4O[C@@H](C)[C@H](O)[C@@H](O)[C@H]4O)c(-c4ccc(O)cc4)oc3c2)[C@H](O)[C@H](O)[C@H]1O

>  <measured number>
-1.403

$$$$
>  <compound>
CC(=O)O[C@@H](CC=C(C)C)C1=CC(=O)c2c(O)ccc(O)c2C1=O

>  <measured number>
-0.759

$$$$
>  <compound>
O=C1c2ccc(O)cc2OCC1c1ccc(O)cc1 (stereo not drawn) [Dihydrodaidzein]

>  <measured number>
-0.987

$$$$
>  <compound>
COc1ccc(-c2cc(=O)c3c(O)c(OC)c(OC)cc3o2)cc1O

>  <measured number>
0.938

$$$$
>  <compound>
O.O=C(O)c1cc(O)c(O)c(O)c1 [Gallic acid (hydrate)]

>  <measured number>
-1.396

$$$$

----------
target system: tau (Homo sapiens, UniProt P10636)
Sequence (P10636 623-695 limits assumed): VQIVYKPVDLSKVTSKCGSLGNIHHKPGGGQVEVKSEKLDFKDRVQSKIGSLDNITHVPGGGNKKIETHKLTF
method summary: MCE Phenols Library screening, tau biosensor cell seeding assay (AvZ)
Format: cell-based
protocol conditions: puncta, replicate 1
raw data 1 less than 20000 is Y; raw data 1 greater than or equal to 20000 is N.

>  <compound>
COc1cc(C)c2c(=O)cc(C[C@@H](C)O)oc2c1[C@@H]1O[C@H](CO)[C@@H](O)[C@H](O)[C@H]1OC(=O)/C=C/c1ccc(O)cc1

>  <answer label>
Y

$$$$
>  <compound>
COc1ccc(-c2oc3cc(O)cc(O)c3c(=O)c2O)cc1 [Kaempferide]

>  <answer label>
N

$$$$
>  <compound>
COc1cc2ccc(=O)oc2c(O)c1OC

>  <answer label>
N

$$$$
>  <compound>
CCc1cccc(C)c1O

>  <answer label>
N

$$$$
>  <compound>
C[C@H]1CCCC(=O)CCC/C=C/c2cc(O)cc(O)c2C(=O)O1

>  <answer label>
N

$$$$
>  <compound>
O=C([O-])C(O)Cc1ccc(O)c(O)c1.[Na+] (stereo not drawn) [Danshensu (sodium salt)]

>  <answer label>
N

$$$$
>  <compound>
COc1cc(OC)c2c(=O)cc(-c3ccc(O)c(O)c3)oc2c1

>  <answer label>
N

$$$$
>  <compound>
NCCCN(CCCCNCCCNC(=O)CCc1ccc(O)c(O)c1)C(=O)CCc1ccc(O)c(O)c1

>  <answer label>
Y

$$$$
>  <compound>
C=C(C)[C@H](CC=C(C)C)Cc1c(O)cc(O)c2c1O[C@H](c1ccc(O)cc1O)CC2=O

>  <answer label>
Y

$$$$
>  <compound>
Oc1cc(O)c2c(c1)O[C@H](c1ccc(O)c(O)c1)[C@H](O)[C@H]2c1c(O)cc(O)c2c1O[C@H](c1ccc(O)c(O)c1)[C@H](O)C2

>  <answer label>
Y

$$$$
>  <compound>
O=C(O)CC(O)(CC(=O)OCc1ccc(O[C@@H]2O[C@H](CO)[C@@H](O)[C@H](O)[C@H]2O)cc1)C(=O)O (stereo partly drawn)

>  <answer label>
Y

$$$$
>  <compound>
COc1ccc2c(c1O)-c1c(OC)c(OC)cc3c1[C@H](C2)N(C)CC3

>  <answer label>
N

$$$$
>  <compound>
COc1cc(O)ccc1/C=C/C(=O)c1ccc(O)cc1

>  <answer label>
Y

$$$$
>  <compound>
Oc1ccc([C@H]2COc3cc(O)ccc3C2)cc1 [(-)-(S)-Equol]

>  <answer label>
N

$$$$
>  <compound>
O=C(O)[C@H]1O[C@@H](Oc2c(-c3ccc(O)cc3)oc3cc(O)cc(O)c3c2=O)[C@H](O)[C@@H](O)[C@@H]1O [Kaempferol 3-O-?-D-glucuronide]

>  <answer label>
N

$$$$
>  <compound>
COc1cc([C@@H]2Oc3c(O)cc([C@H]4Oc5cc(O)cc(O)c5C(=O)[C@@H]4O)cc3[C@H]2CO)ccc1O

>  <answer label>
N

$$$$
>  <compound>
O=c1ccc2cc(O)c(O)cc2o1

>  <answer label>
N

$$$$
>  <compound>
Oc1ccc2c(c1)OC[C@H]1c3cc4c(cc3O[C@@H]21)OCO4 [(-?)?-Maackiain]

>  <answer label>
N

$$$$
>  <compound>
CC(Cc1ccc(O)c(O)c1)C(C)Cc1ccc(O)c(O)c1 (stereo not drawn) [Nordihydroguaiaretic acid]

>  <answer label>
N

$$$$
>  <compound>
Cc1c(C)c2c(c(C)c1O)CCC(C)(CCCC(C)CCCC(C)CCCC(C)C)O2 (racemic)

>  <answer label>
Y

$$$$
>  <compound>
CCc1c(Cl)c(O)c(Cl)c(O)c1C(=O)O[C@H]1[C@H](O)[C@H](OC)[C@H](OC/C2=C\C=C\C[C@H](O)/C(C)=C/[C@H](CC)[C@@H](O[C@@H]3OC(C)(C)[C@@H](OC(=O)C(C)C)[C@H](O)[C@@H]3O)/C(C)=C/C(C)=C/C[C@@H]([C@@H](C)O)OC2=O)O[C@@H]1C

>  <answer label>
N

$$$$
>  <compound>
O=C1C[C@@H](c2cc(O)c(O)c(O[C@@H]3O[C@H](CO)[C@@H](O)[C@H](O)[C@H]3O)c2)Oc2cc(O)cc(O)c21 [Plantagoside]

>  <answer label>
N

$$$$
>  <compound>
Oc1cc(O)c2cc(O)c(-c3ccc(O)c(O)c3)[o+]c2c1.[Cl-] [Cyanidin (Chloride)]

>  <answer label>
Y

$$$$
>  <compound>
C=C(C)[C@H](CC=C(C)C)Cc1c(O)cc(OC)c2c1O[C@H](c1ccc(O)cc1OC)CC2=O

>  <answer label>
N

$$$$

----------
target system: UniProtKB P10636
method summary: MCE Phenols Library screening, tau biosensor cell seeding assay (AvZ)
Type: cell-based
protocol conditions: Z score, replicate 2
Parameter Z Repl 2: see the listing below.

>  <compound>
COc1c(O)cc2oc(-c3ccc(O)c(O)c3)cc(=O)c2c1O [Nepetin]

>  <Z Repl 2>
-0.807

$$$$
>  <compound>
O=C(O)c1cc(O)c2c(c1)C(=O)c1cccc(O[C@@H]3O[C@H](CO)[C@@H](O)[C@H](O)[C@H]3O)c1C2=O [Rhein 8-Glucoside]

>  <Z Repl 2>
0.434

$$$$
>  <compound>
O=C(C=Cc1ccc(O)c(O)c1)OC1CC(O)(C(=O)O)CC(O)C1OC(=O)C=Cc1ccc(O)c(O)c1 (centres unmarked) [4,5-Dicaffeoylquinic acid]

>  <Z Repl 2>
-0.252

$$$$
>  <compound>
COc1ccc(-c2oc3c(CC=C(C)C)c(O)cc(O)c3c(=O)c2O[C@@H]2O[C@@H](C)[C@H](O)[C@@H](O)[C@H]2O[C@@H]2O[C@H](CO)[C@@H](O)[C@H](O)[C@H]2O)cc1 [Sagittatoside A]

>  <Z Repl 2>
-0.506

$$$$
>  <compound>
O=C(/C=C/c1ccc(O)c2oc(-c3ccc(O)c(O)c3)cc12)O[C@H](Cc1ccc(O)c(O)c1)C(=O)O [Salvianolic acid C]

>  <Z Repl 2>
-1.179

$$$$
>  <compound>
O=C(O[C@@H]1Cc2c(O)cc(O)cc2O[C@@H]1c1cc(O)c(O)c2c(=O)c(O)cc([C@H]3Oc4cc(O)cc(O)c4C[C@H]3O)cc12)c1cc(O)c(O)c(O)c1 [Theaflavin-3'-gallate]

>  <Z Repl 2>
-1.186

$$$$
>  <compound>
COc1cc(O)c2c(=O)cc(-c3ccccc3)oc2c1 [Tectochrysin]

>  <Z Repl 2>
-0.371

$$$$
>  <compound>
COc1cc(O)c2c(=O)cc(-c3ccc(O)cc3)oc2c1 [Genkwanin]

>  <Z Repl 2>
0.655

$$$$
>  <compound>
O=C1c2ccccc2C(=O)c2c(O)ccc(O)c21 [Quinizarin]

>  <Z Repl 2>
-0.252

$$$$
>  <compound>
COc1cc(-c2oc3cc(O)cc(O)c3c(=O)c2O[C@@H]2O[C@H](CO[C@@H]3O[C@@H](C)[C@H](O)[C@@H](O)[C@H]3O)[C@@H](O)[C@H](O)[C@H]2O)ccc1O [Narcissin]

>  <Z Repl 2>
-0.653

$$$$
>  <compound>
OC[C@H]1O[C@@H](Oc2cc(O)cc(/C=C/c3ccc(O[C@@H]4O[C@H](CO)[C@@H](O)[C@H](O)[C@H]4O)cc3O)c2)[C@H](O)[C@@H](O)[C@@H]1O [Mulberroside A]

>  <Z Repl 2>
-0.34

$$$$
>  <compound>
Cc1ccc(O)c(O)c1 [4-Methylcatechol]

>  <Z Repl 2>
-0.975

$$$$
>  <compound>
O=C(CCc1ccc(O)cc1)c1c(O)cc(O[C@@H]2O[C@H](CO)[C@@H](O)[C@H](O)[C@H]2O)cc1O [Trilobatin]

>  <Z Repl 2>
-0.24

$$$$
>  <compound>
O=C(O)CNC(=O)c1cccc(O)c1 [3-Hydroxyhippuric acid]

>  <Z Repl 2>
-0.448

$$$$
>  <compound>
O=C(/C=C/c1ccc(O)cc1)NCCc1c[nH]c2ccc(O)cc12 [N-(p-Coumaroyl) Serotonin]

>  <Z Repl 2>
-0.702

$$$$
>  <compound>
CCCCC[C@H](O)CC(=O)CCc1ccc(O)c(OC)c1 [[6]-Gingerol]

>  <Z Repl 2>
0.874

$$$$
>  <compound>
O=C(O)Cc1cc(O)ccc1O[C@@H]1O[C@H](CO)[C@@H](O)[C@H](O)[C@H]1O [Phaseoloidin]

>  <Z Repl 2>
-0.658

$$$$
>  <compound>
O=C(O)c1ccc(O)cc1 [4-Hydroxybenzoic acid]

>  <Z Repl 2>
-0.785

$$$$
>  <compound>
COc1cc(CCCO)cc(OC)c1O [Dihydrosinapyl alcohol]

>  <Z Repl 2>
0.221

$$$$
>  <compound>
O=C1c2cccc(O)c2C(=O)c2c(O)cccc21 [Danthron]

>  <Z Repl 2>
-0.634

$$$$
>  <compound>
C[C@@H]1O[C@@H](O[C@H]2C(=O)c3c(O)cc(O)cc3O[C@H]2c2ccc(O)c(O)c2)[C@H](O)[C@H](O)[C@H]1O [Neoisoastilbin]

>  <Z Repl 2>
0.303

$$$$
>  <compound>
Cc1cc(=O)oc2c(O)c(O)ccc12 [4-Methyldaphnetin]

>  <Z Repl 2>
-0.74

$$$$
>  <compound>
O=c1oc2cc(O)ccc2c2oc3cc(O)ccc3c12 [Coumestrol]

>  <Z Repl 2>
-0.542

$$$$
